- measured_on: E6 WT/E6AP (Human papillomavirus type 16, UniProt P03126)
- Sequence (P03126 8-158): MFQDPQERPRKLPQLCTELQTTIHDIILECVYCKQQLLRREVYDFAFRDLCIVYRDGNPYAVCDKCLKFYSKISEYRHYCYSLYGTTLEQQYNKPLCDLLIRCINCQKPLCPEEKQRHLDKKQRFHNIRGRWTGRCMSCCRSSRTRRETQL
- assay_protocol: biochemical
- Format: binding
- condition_info: 10 μM compound, WT 16E6
The threshold is inclusive: inhibition at 10 µM of exactly 30% counts as satisfied; values below receive not satisfied.

Would you say C=CC(=O)N1CCN(c2nc(N(C)Cc3ccc(F)cc3)nc3sc4c(c23)CCCC4)CC1 [EIN-142] shows inhibition at 10 µM at minimum 30%?
not satisfied

Would you say Cc1ccccc1C1c2ccsc2CCN1CC(=O)N1CCCN(C(=O)CCl)CC1 (stereo not drawn) [EIN-116] shows inhibition at 10 µM at minimum 30%?
not satisfied

Would you say C=CC(=O)N1CCN(c2nc(CCc3ccccc3F)nc3sc4c(c23)CCCC4)CC1 [EIN-138] shows inhibition at 10 µM at minimum 30%?
not satisfied

Would you say C=CC(=O)N1CCN(c2nc(CCc3ccc(OC)cc3)nc3sc4c(c23)CCCC4)CC1 [EIN-144] shows inhibition at 10 µM at minimum 30%?
not satisfied

Would you say C=CC(=O)N1CCN(c2nc(CCc3ccccc3)nc3sc4c(c23)CCCC4)CC1 [EIN-132] shows inhibition at 10 µM at minimum 30%?
not satisfied

Would you say CCCc1nc(N2CCN(C(=O)CCl)CC2)c2c3c(sc2n1)CC(C)CC3 (stereo not drawn) [EIN-130] shows inhibition at 10 µM at minimum 30%?
satisfied

Would you say C=CC(=O)N1CCN(c2nc(CCc3ccc(F)cc3)nc3sc4c(c23)CCCC4)CC1 [EIN-136] shows inhibition at 10 µM at minimum 30%?
satisfied

Would you say CCCCc1nc(N2CCN(C(=O)CCl)CC2)c2c3c(sc2n1)CC(C)CC3 (stereo not drawn) [EIN-124] shows inhibition at 10 µM at minimum 30%?
satisfied

Would you say Cc1nc(N2CCN(C(=O)CCl)CC2)c2c3c(sc2n1)CCCC3 [EIN-123] shows inhibition at 10 µM at minimum 30%?
satisfied
